// data source = patent US20250177362A1

# MEASURED ON: GLP-1 Receptor (Homo sapiens)
# Sequence (P43220 24-463, species assumed): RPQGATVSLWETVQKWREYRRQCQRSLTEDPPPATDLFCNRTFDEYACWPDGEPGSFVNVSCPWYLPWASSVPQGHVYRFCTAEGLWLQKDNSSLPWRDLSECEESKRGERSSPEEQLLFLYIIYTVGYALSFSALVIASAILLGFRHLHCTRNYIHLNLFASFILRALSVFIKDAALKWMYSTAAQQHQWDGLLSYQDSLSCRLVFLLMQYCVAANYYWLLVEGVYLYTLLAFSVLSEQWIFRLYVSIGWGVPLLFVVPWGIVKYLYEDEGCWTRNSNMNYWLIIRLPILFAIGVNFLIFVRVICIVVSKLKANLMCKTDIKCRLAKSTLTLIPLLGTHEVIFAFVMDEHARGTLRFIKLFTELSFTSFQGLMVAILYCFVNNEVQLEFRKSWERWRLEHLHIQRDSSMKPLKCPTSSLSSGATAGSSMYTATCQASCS
# TEST DETAILS: GLP-1R agonist cAMP stimulation assay
# MEASUREMENT SETUP: HEK293/CRE-Luc cell line stably expressing the GLP-1 Receptor; 30 min incubation; cAMP dynamic 2 Kit (Cisbio)
pEC50: −log10 of the molar value.
Each item that follows carries a reported pEC50.

Reference set, count: 6
C[C@]1(c2ccc(Cl)cc2F)Oc2cccc(C3CCN(Cc4nnc(-c5nnc(C(F)(F)F)[nH]5)cc4N4CCC(O)C4)CC3)c2O1 (stereo partly shown) : 7.00 to 9.00
C[C@]1(c2ccc(Cl)cc2F)Oc2cccc(C3CCN(Cc4ncc(-c5nnc(C(=O)O)[nH]5)cc4CC4(C#N)CC4)CC3)c2O1 : > 9.00
Cc1cc(-c2cnc(C(=O)O)s2)cnc1CN1CCC(c2cccc3c2OC(C)(c2ccc(Cl)cc2F)O3)CC1 (stereo not shown) : 7.00 to 9.00
CC1CN(c2cc(-c3nnc(C(F)(F)F)[nH]3)nnc2CN2CCC(c3cccc4c3O[C@@](C)(c3ccc(Cl)cc3F)O4)CC2)CCO1 (stereo partly shown) : 7.00 to 9.00
CC1(C#N)CCN(c2cc(-c3nnc(C(F)(F)F)[nH]3)cnc2CN2CCC(c3cccc4c3O[C@@](C)(c3ccc(Cl)cc3F)O4)CC2)C1 (stereo partly shown) : 7.00 to 9.00
CC1(c2ccc(Cl)cc2F)Oc2cccc(C3CCN(Cc4ncc(-c5nnc(C(F)(F)F)[nH]5)cc4OC4CCCC4)CC3)c2O1 (stereo not shown) : 7.00 to 9.00

Next:
Value of pEC50 reported for the molecule Cc1cc(-c2nc(-c3cccnc3)no2)cnc1CN1CCC(c2cccc(OCc3ccc(Cl)cc3F)n2)CC1 is < 7.00
